Values were extracted from ChEMBL document CHEMBL3526132.

- target.entity: CYP3A4 (Homo sapiens)
- Sequence (P08684 whole entry): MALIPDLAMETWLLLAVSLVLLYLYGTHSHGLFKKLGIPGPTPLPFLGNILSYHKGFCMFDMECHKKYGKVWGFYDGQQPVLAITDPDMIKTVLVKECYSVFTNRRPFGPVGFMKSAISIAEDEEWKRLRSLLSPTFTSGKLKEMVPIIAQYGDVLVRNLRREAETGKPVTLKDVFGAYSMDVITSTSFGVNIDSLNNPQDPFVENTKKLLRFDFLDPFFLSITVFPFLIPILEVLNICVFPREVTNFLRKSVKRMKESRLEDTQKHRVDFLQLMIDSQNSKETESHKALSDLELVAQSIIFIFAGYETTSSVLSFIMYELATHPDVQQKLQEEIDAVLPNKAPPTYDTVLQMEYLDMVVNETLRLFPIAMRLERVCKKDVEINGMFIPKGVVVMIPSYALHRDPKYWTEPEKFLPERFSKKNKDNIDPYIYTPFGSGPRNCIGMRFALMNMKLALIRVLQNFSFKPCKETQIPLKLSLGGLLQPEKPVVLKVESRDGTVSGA
- measurement.notes: Drug metabolism assessed as unchanged drug level in baculovirus-infected Sf9 cell microsomes expressing human recombinant CYP3A4 at 10 uM after 30 mins by LC-RAM-MS analysis
- Type: ADME
- applied.conditions: read-out: Drug metabolism
measurement.type: remaining at 0.5 h, 10 µM (%)
# number only, unit % dropped from output

Task: Value lookup for remaining at 0.5 h, 10 µM; key = COc1c(C)cnc(Cn2[14cH]nc3c(Cl)nc(N)nc32)c1C
Result: 70
